From: ChEMBL document CHEMBL4033712

Documented growth at 10 µM across a set of compounds
# Tested on: HOP-62
# experimentalProtocol: Anticancer activity against human HOP62 cells assessed as cell growth at 10 uM after 48 hrs by sulforhodamine B assay relative to control
# Assay type: functional
# testConditions: HOP-62, 48 h, read-out: Activity

Please review the following examples before continuing.
{"compound": "C=C1CC[C@@H]2[C@](C)(COC(C)=O)[C@H](OC(C)=O)CC[C@@]2(C)[C@H]1CC(Nc1ccc(S(=O)(=O)Nc2ccc(Cl)nn2)cc1)C1=CCOC1=O (stereo partly drawn)", "testSystem": "HOP-62", "propertyLabel": "growth at 10 µM", "assayValue": "47.9%"}
{"compound": "C=C1CC[C@@H]2[C@](C)(COC(C)=O)[C@H](OC(C)=O)CC[C@@]2(C)[C@H]1CC(Nc1ccc(S(=O)(=O)Nc2nccc(C)n2)cc1)C1=CCOC1=O (stereo partly drawn)", "testSystem": "HOP-62", "propertyLabel": "growth at 10 µM", "assayValue": "156%"}

Now look at this one.
Ask: # input compound: C=C1CC[C@@H]2[C@](C)(COC(C)=O)[C@H](OC(C)=O)CC[C@@]2(C)[C@H]1CC(Nc1ccc(S(=O)(=O)Nc2nccs2)cc1)C1=CCOC1=O (stereo partly drawn) ; wanted: its growth at 10 µM
Result: 120%
